study system: T1, biotin-labeled human PAD4 protein (human, UniProt Q9UM07 1-663, biotin on the Avi tag (biotin ligase BirA))
T1 construct: also called Avi tag-human PAD4; biotin-labeled PAD4; not shown: Avi tag left on the N-terminal side after the GST tag was cleaved with PreScission Protease
T1 sequence (Q9UM07 whole entry): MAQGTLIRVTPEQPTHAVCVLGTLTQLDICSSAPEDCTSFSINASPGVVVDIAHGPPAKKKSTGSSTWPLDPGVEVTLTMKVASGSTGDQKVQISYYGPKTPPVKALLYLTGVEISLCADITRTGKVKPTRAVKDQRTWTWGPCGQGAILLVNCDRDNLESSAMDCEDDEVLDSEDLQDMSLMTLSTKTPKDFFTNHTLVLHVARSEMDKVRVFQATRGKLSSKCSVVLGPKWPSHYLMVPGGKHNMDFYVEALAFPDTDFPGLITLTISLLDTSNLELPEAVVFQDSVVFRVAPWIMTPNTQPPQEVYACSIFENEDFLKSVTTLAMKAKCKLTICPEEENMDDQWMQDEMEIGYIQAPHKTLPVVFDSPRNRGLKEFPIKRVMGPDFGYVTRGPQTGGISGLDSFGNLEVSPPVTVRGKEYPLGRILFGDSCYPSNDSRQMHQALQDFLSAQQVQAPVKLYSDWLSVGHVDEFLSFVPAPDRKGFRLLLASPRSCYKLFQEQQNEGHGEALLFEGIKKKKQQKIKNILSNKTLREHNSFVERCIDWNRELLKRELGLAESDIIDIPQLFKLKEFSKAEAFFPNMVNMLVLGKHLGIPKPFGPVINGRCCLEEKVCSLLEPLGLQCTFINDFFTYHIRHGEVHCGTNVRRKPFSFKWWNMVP
procedure summary: SPR, Biacore T200, biotin-labeled human PAD4 captured on chip, IgG as analyte

binder	reading unit	koff
Lib2(4R)-1-47 (antibody, V domains shown, Tested as full-length antibody (human IgG1/human k) from Expi293; also called Lib(4R)-1-47) VH: EVQLLESGGGLVQPGGSLRLSCAASGFTFSTYAMGWVRQAPGKGLEFVAAIRNDGSWTGYGTPYKTRFTISRDNSKNTLYLQMNSLRAEDTAVYYCAKYTGSSGGSIGAWGQGTLVTVSS VL: SYELTQPPSVSVSPGQTARITCSGGNRNYYYGWYQQKPGQAPVTVIYANDKRPSGIPERFSGSNSGSTTTLTISGVQAEDEADYYCGTATTGKYVFGGGTKLTVLG	s⁻¹	0.000164
Lib1(6R)-2-37 (antibody, human IgG1, lambda, V domains shown, Tested as full-length antibody (human IgG1/human k) from Expi293) VH: EVQLLESGGGLVQPGGSLRLSCAASGFTFSTYAMGWVRQAPGKGLEFVAAIRNDGSWTGIGYNQKSRFTISRDNSKNTLYLQMNSLRAEDTAVYYCGKYTGSSGGSIGAWGQGTLVTVSS VL: SYELTQPPSVSVSPGQTARITCSGGNRNYYYGWYQQKPGQAPVTVIYANDKRPSGIPERFSGSNSGSTTTLTISGVQAEDEADYYCGTALTGKYVFGGGTKLTVLG	s⁻¹	0.000361
Lib1(6R)-1-39 (antibody, human IgG1, lambda, V domains shown, Tested as full-length antibody (human IgG1/human k) from Expi293) VH: EVQLLESGGGLVQPGGSLRLSCAASGFTFSTYAMGWVRQAPGKGLEFVAAIRNDGSWTGTSVNAKTRFTISRDNSKNTLYLQMNSLRAEDTAVYYCAKYTGSSGGSIGAWGQGTLVTVSS VL: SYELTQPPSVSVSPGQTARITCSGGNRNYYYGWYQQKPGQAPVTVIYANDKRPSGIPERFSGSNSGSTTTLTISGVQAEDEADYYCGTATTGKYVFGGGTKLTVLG	s⁻¹	0.000108
Lib2(5R)-2-25 (antibody, human IgG1, lambda, V domains shown, Tested as full-length antibody (human IgG1/human k) from Expi293) VH: EVQLLESGGGLVQPGGSLRLSCAASGFTFSTYAMGWVRQAPGKGLEFVAAIRNDGSWTGYPPPLKGRFTISRDNSKNTLYLQMNSLRAEDTAVYYCAKYTGSSGGSIGAWGQGTLVTVSS VL: SYELTQPPSVSVSPGQTARITCSGGNRNYYYGWYQQKPGQAPVTVIYANDKRPSGIPERFSGSNSGSTTTLTISGVQAEDEADYYCGTAYTGKYVFGGGTKLTVLG	s⁻¹	0.000202

Origin of values: patent US20240309112A1
